Origin of the recorded values: PubChem BioAssay

test-system: Receptor tyrosine-protein kinase erbB-2 (Homo sapiens)
experiment-summary: reducers of endogenous Her2 protein level, primary screen, SKBR3 breast tumor cells, AlphaScreen, ATP viability (AID 461);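 note: lower value means less Her2 protein in the cells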
settings: 18-24 h, at 10 µM, hits give low values
Consider the cut-off 90%. If the recorded Her2 level is strictly smaller, the label is 1 (yes); if not, the label is 0 (no).

molecule | class
CC(C)COC(=O)C1C2C=CC3(CN(C(C)c4ccc(Br)cc4)C(=O)C13)O2 (stereo not given) | 0 (no)
Cc1coc(NC(=O)CSc2nc(-c3ccncc3)cc(C(F)(F)F)c2C#N)n1 | 1 (yes)
CCOc1ccc(-c2nc(S(=O)(=O)c3ccccc3)c(NCc3cccnc3)o2)cc1 | 0 (no)

Determine if O=C(COc1ccccc1)Nc1ccccc1N1CCN(c2ccccc2)CC1 shows Her2 level strictly lower than 90%.
1 (yes)
